target: CXCR7 (Homo sapiens); assay: PathHunter CHO-K1 CXCR7 b-arrestin assay (agonistic activity); conditions: PathHunter CHO-K1 CXCR7 b-arrestin cell line, 90 minutes at 37° C.
Sequence (P25106 whole entry): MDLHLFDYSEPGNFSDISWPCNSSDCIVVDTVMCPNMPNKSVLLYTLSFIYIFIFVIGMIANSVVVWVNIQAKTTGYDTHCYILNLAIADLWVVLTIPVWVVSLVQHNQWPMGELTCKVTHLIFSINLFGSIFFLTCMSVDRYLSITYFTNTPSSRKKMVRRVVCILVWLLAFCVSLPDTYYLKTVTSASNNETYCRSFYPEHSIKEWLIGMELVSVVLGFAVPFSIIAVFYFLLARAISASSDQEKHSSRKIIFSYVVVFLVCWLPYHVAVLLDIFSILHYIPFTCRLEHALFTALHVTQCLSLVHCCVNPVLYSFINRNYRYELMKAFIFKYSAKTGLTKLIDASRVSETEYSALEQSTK
Can you tell me EC50 for the items I'm about to list?
Please state the figure in µM; there is no need to write the unit.

For record CCC(C)(C)NC(=O)C1CCCN(Cc2cccc(NC(=O)c3cccc(C(F)(F)F)n3)c2)CC1 (racemic) [Example 2.088] the listed EC50 is 0.019

For record O=C(Nc1cccc(CN2CCC(C(=O)NCC3CCCC3)CC2)c1)c1ccc(Cl)cc1 [Example 2.010] the listed EC50 is 0.004

For record Cc1cncc(C(=O)Nc2cccc(CN3CCC(F)(C(=O)NC(C)(C)C)CC3)c2)c1 [Example 4.002] the listed EC50 is 0.016

For record CCC(C)(C)NC(=O)C1CCN(Cc2cccc(NC(=O)c3cncc(C)c3)c2)CC1 [Example 2.059] the listed EC50 is 0.003

For record Cc1cncc(C(=O)Nc2cccc(CN3CCC(C(=O)N4CCC(C)(C)C4)CC3)c2)c1 [Example 2.061] the listed EC50 is 0.064

For record O=C(Nc1ccnc(CN2CCC(C(=O)NC3CCCCC3)CC2)c1)c1ccc(Cl)cc1 [Example 3.007] the listed EC50 is 0.028

For record CCNC(=O)C1CCN(Cc2cccc(NC(=O)c3cccc(C(F)(F)F)n3)c2)CC1 [Example 2.069] the listed EC50 is 0.004

For record CC(C)(C)NC(=O)C1CCN(Cc2cc(NC(=O)c3ccc(F)cc3)cs2)CC1 [Example 3.009] the listed EC50 is 0.004

For record CC(C)(C)NC(=O)C1CCN(Cc2cccc(NC(=O)c3ccc(Cl)cc3)c2)CC1 [Example 2.004] the listed EC50 is 0.001

For record Cc1cncc(C(=O)Nc2cccc(CN3CCC(C)(C(=O)NC(C)(C)C)CC3)c2)c1 [Example 4.004] the listed EC50 is 0.059

For record COc1cncc(C(=O)Nc2cccc(CN3CCC(C(=O)N(C)CC(C)C)CC3)c2)c1 [Example 4.015] the listed EC50 is 0.019

For record O=C(Nc1cccc(CN2CCC(C(=O)NC3(CO)CCCC3)CC2)c1)c1ccc(Cl)cc1 [Example 2.032] the listed EC50 is 0.005

====

Can you tell me pEC50 for the items I'm about to list?
biological target: CXCR7 (Homo sapiens); experiment: PathHunter CHO-K1 CXCR7 b-arrestin assay (agonistic activity); settings: PathHunter CHO-K1 CXCR7 b-arrestin cell line, 90 minutes at 37° C.
When answering, recall that pEC50 equals minus log10 of the concentration in mol/L, and write that number alone.

Measured on CXCR7 (Homo sapiens), `O=C(Nc1cccc(CN2CCC(C(=O)NCc3ccc(Cl)cc3)CC2)c1)c1ccc(Cl)cc1` has a documented pEC50 of 6.36

Measured on CXCR7 (Homo sapiens), `CN(C)C(=O)C1CCN(Cc2cccc(NC(=O)c3cccs3)c2)CC1` has a documented pEC50 of 6.81

Measured on CXCR7 (Homo sapiens), `CC(C)(C)NC(=O)C1CCN(Cc2cccc(NC(=O)c3ccc(F)c[n+]3[O-])c2)CC1` has a documented pEC50 of 8.52

Measured on CXCR7 (Homo sapiens), `CCCNC(=O)C1CCN(Cc2cccc(NC(=O)c3cccc(C(F)(F)F)n3)c2)CC1` has a documented pEC50 of 9.00

Measured on CXCR7 (Homo sapiens), `CCN(CC)C(=O)C1CCN(Cc2cccc(NC(=O)c3ccc(Cl)cc3)c2)CC1` has a documented pEC50 of 9.00

Measured on CXCR7 (Homo sapiens), `O=C(Nc1cccc(CN2CCC(C(=O)NC3CCCCC3)CC2)n1)c1ccc(F)cc1` has a documented pEC50 of 6.78

Measured on CXCR7 (Homo sapiens), `CC(C)(C)NC(=O)C1CCN(Cc2csc(NC(=O)c3ccc(F)cc3)c2)CC1` has a documented pEC50 of 8.52

Measured on CXCR7 (Homo sapiens), `O=C(Nc1cccc(CN2CCC(C(=O)NCc3ccccc3)CC2)c1)c1cccs1` has a documented pEC50 of 6.11

====

Can you tell me EC50 for the items I'm about to list?
molecular target: CXCR7 (Homo sapiens); test: PathHunter CHO-K1 CXCR7 b-arrestin assay (agonistic activity); conditions: PathHunter CHO-K1 CXCR7 b-arrestin cell line, 90 minutes at 37° C.
Please state the figure in nM; there is no need to write the unit.

For record O=C(Nc1cccc(CN2CCC(C(=O)NC3CCCC3)CC2)c1)c1ccc(Cl)cc1 [Example 2.001] the listed EC50 is 0.9

For record COc1ccc(CNC(=O)C2CCN(Cc3cccc(NC(=O)c4ccc(Cl)cc4)c3)CC2)cc1 [Example 2.030] the listed EC50 is 832

For record COCCNC(=O)C1CCN(Cc2cccc(NC(=O)c3ccc(Cl)cc3)c2)CC1 [Example 2.005] the listed EC50 is 5

For record Cc1cncc(C(=O)Nc2cccc(CN3CCC(C(=O)N4CCCC4C)CC3)c2)c1 (racemic) [Example 2.050] the listed EC50 is 26

All figures here come from patent US20130345199A1.
